From: paper PMC8769072

biological target: NEDD4 890-928, P46934
Sequence (P46934 890-928): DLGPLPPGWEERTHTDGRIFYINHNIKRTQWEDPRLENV
OBSERVATION TYPE: selected by phage display

Previously resolved entries follow.
[[record]]
binder = "RDPEPPEPPTYRAQGV [BSN, Q9UPA5]"
value = "confidence 3 (active)"

[[record]]
binder = "DLPAYTSPTNFPAVLS [ABCA2, Q9BZC7]"
value = "confidence 3 (active)"

[[record]]
binder = "YLEDLPPPPEYELAPS [GRSF1, Q12849]"
value = "confidence 2 (active)"

[[record]]
binder = "KVVDIPTYEEAVSFPV [TMEM61, Q8N0U2]"
value = "confidence 2 (active)"

[[record]]
binder = "LAGPESPPPPYSRLSP [SMAD6, O43541]"
value = "confidence 3 (active)"

[[record]]
binder = "YLSEGFGYGMPPLYPQ [NFATC4, Q14934]"
value = "confidence 2 (active)"


Incoming: // lookup selected by phage display for TAPPPYSPSPNPYQTA [FAM168A, Q92567]
Outgoing: confidence 3 (active)

Incoming: What about PPPQYIHPNSINVDGN [PRDM4, Q9UKN5] ?
Outgoing: confidence 2 (active)
